Every entry's value here was drawn from ChEMBL document CHEMBL1961873.

Give measured inhibition for each item. Keep answers brief.
system: Serine/threonine-protein kinase D2 (Homo sapiens);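 also: mean value of PRKD2 inhibition, from the GSK PKIS screening panel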
applied_conditions: at 1 µM
Write down the numeric answer in % and omit the unit.

INPUT: Would you mind telling me what inhibition value was observed for COC(=O)Nc1nc2ccc(S(=O)(=O)c3ccc(NC(=O)Nc4cc(C(F)(F)F)ccc4F)cc3)cc2[nH]1 ?
OUTPUT: 5.37

INPUT: Would you mind telling me what inhibition value was observed for COc1cc2c(cc1Nc1nc(Nc3ccsc3C(N)=O)c3cc[nH]c3n1)N(C(=O)CN(C)C)CCC2(C)C ?
OUTPUT: 75.7

INPUT: Would you mind telling me what inhibition value was observed for O=C(O[C@H]1CN[C@H](C#Cc2cc3ncnc(Nc4ccc(Cc5ccccc5)cc4)c3s2)C1)N1CCOCC1 ?
OUTPUT: 1.56

INPUT: Would you mind telling me what inhibition value was observed for CCNC(=O)O[C@H]1CN[C@H](C#Cc2cc3ncnc(Nc4ccc(OCc5cccc(F)c5)c(Cl)c4)c3s2)C1 ?
OUTPUT: 3.71

INPUT: Would you mind telling me what inhibition value was observed for Fc1ccc(-c2cc(-c3c[nH]nc3-c3ccccn3)ccn2)cc1 ?
OUTPUT: 32.4

INPUT: Would you mind telling me what inhibition value was observed for COc1ccc(-c2oc3ncnc(N)c3c2-c2ccc(NC(=O)Nc3cc(C(F)(F)F)ccc3F)cc2)cc1 ?
OUTPUT: 3.15

INPUT: Would you mind telling me what inhibition value was observed for COc1cccc(-c2c[nH]c3c(N/N=C/c4ccncc4)ncnc23)c1 ?
OUTPUT: 5.96

INPUT: Would you mind telling me what inhibition value was observed for Fc1ccc(-c2nn3ncccc3c2-c2ccnc(Nc3ccc4c(c3)OCCO4)n2)cc1 ?
OUTPUT: 52.1

INPUT: Would you mind telling me what inhibition value was observed for COc1ccc2c(-c3ccnc(Nc4cccc(OC(F)(F)F)c4)n3)cnn2n1 ?
OUTPUT: 5.35

INPUT: Would you mind telling me what inhibition value was observed for CC(=O)Nc1cccc(C#Cc2cncnc2Nc2ccc(OCc3cccc(F)c3)c(Cl)c2)c1 ?
OUTPUT: 3.79

INPUT: Would you mind telling me what inhibition value was observed for COc1cc(N2CCN(C(C)C)CC2)ccc1Nc1nc(Nc2ccc(F)cc2C(N)=O)c2cc[nH]c2n1 ?
OUTPUT: 83.9

* * *

Give measured inhibition for each item. Keep answers brief.
Tested on: Tyrosine-protein kinase ABL1 (Homo sapiens), P00519 [H396P]
applied_conditions: at 1 µM
The answer consists of two parts: a number and, after it, its unit.

INPUT: Would you mind telling me what inhibition value was observed for NS(=O)(=O)c1ccc(N/N=C2\C(=O)Nc3ccc4ncccc4c32)cc1 ?
OUTPUT: 47.7%

INPUT: Would you mind telling me what inhibition value was observed for CNC(=O)c1cncc(/C=C/c2ccccc2Cl)c1 ?
OUTPUT: 24.1%

INPUT: Would you mind telling me what inhibition value was observed for c1cc(-c2cnn3nc(N4CCOCC4)ccc23)nc(NC2CC2)n1 ?
OUTPUT: 5.18%

INPUT: Would you mind telling me what inhibition value was observed for CC(=O)NCc1cccc(C#Cc2cncnc2Nc2ccc(OCc3cccc(F)c3)c(Cl)c2)c1 ?
OUTPUT: -0.68%

INPUT: Would you mind telling me what inhibition value was observed for CN(C)CCOc1ccc(-c2nc(-c3ccncc3)c(-c3ccc4c(c3)CC/C4=N\O)[nH]2)cc1 ?
OUTPUT: 34.1%

INPUT: Would you mind telling me what inhibition value was observed for Clc1ccc(-c2nn3ncccc3c2-c2ccnc(Nc3ccccc3)n2)cc1 ?
OUTPUT: 20.5%

INPUT: Would you mind telling me what inhibition value was observed for O=S(=O)(CCNCc1ccc(-c2ccc3ncnc(Nc4ccc(OCc5cccc(F)c5)c(Cl)c4)c3c2)o1)c1ccccc1 ?
OUTPUT: 6.8%

INPUT: Would you mind telling me what inhibition value was observed for COc1ccc(-c2cc3c(N)ncnc3o2)cc1 ?
OUTPUT: 11%

INPUT: Would you mind telling me what inhibition value was observed for Nc1nc(-c2cccc(Cl)c2)c(-c2ccc3ncccc3n2)s1 ?
OUTPUT: 19.9%

INPUT: Would you mind telling me what inhibition value was observed for O=C(Nc1n[nH]c2cc(-c3ccc(F)cc3)ccc12)C1CC1 ?
OUTPUT: 46.6%
